- Tested on: SK-MM-2 (Plasma Cell Myeloma)
- assay-text: combination Emax (second highest fraction inhibited in the dose matrix, 72 h); higher = more inhibition; extreme values may be limits of the assay
measured-property: combination Emax

Prompt: Under SK-MM-2 (Plasma Cell Myeloma): combination Emax value of N#Cc1cnc(Nc2cc(NC[C@H]3CNCCO3)c(C(F)(F)F)cn2)cn1 [SRA737] + C=CCn1c(=O)c2cnc(Nc3ccc(N4CCN(C)CC4)cc3)nc2n1-c1cccc(C(C)(C)O)n1 [AZD1775] (first compound max 10 µM, partner max 1 µM) ?
Completion: 0.452

Prompt: Under SK-MM-2 (Plasma Cell Myeloma): combination Emax value of CN(C)CCCOc1ccc(-c2ccc3ncc4c(c3c2)n(C2CCOCC2)c(=O)n4C)cn1 [AZD0156] + C[C@@H]1COCCN1C2=NC(=NC(=C2)C3(CC3)[S@](=N)(=O)C)C4=C5C=CNC5=NC=C4 [AZD6738] (first compound max 1 µM, 7x7, partner max 10 µM) ?
Completion: 0.625

Prompt: Under SK-MM-2 (Plasma Cell Myeloma): combination Emax value of Cc1c2c(nn1C)CSCc1cc(n(C)n1)CSc1cc(c3ccccc3c1)OCCCc1c(C(=O)O)n(C)c3c-2c(Cl)ccc13 [AZD5991] + CCN(CCO)CCCOc1ccc2c(Nc3cc(CC(=O)Nc4cccc(F)c4)[nH]n3)ncnc2c1 [AZD2811] (first compound max 1 µM, 7x7, partner max 1 µM) ?
Completion: 0.487

Prompt: Under SK-MM-2 (Plasma Cell Myeloma): combination Emax value of Cc1c2c(nn1C)CSCc1cc(n(C)n1)CSc1cc(c3ccccc3c1)OCCCc1c(C(=O)O)n(C)c3c-2c(Cl)ccc13 [AZD5991] + Cn1cnc2c(F)c(Nc3ccc(Br)cc3Cl)c(C(=O)NOCCO)cc21 [Selumetinib] (first compound max 1 µM, 7x7, partner max 3 µM) ?
Completion: 0.356

* * *

- Tested on: RPMI-8866 (Chronic Myelogenous Leukemia)
- assay-text: combination Emax (second highest fraction inhibited in the dose matrix, 72 h); higher = more inhibition; extreme values may be limits of the assay
measured-property: combination Emax
Could you keep your reply to the number by itself?

Prompt: Param item = CC1(C)CCC(CN2CCN(c3ccc(C(=O)NS(=O)(=O)c4ccc(NCC5CCOCC5)c([N+](=O)[O-])c4)c(Oc4cnc5[nH]ccc5c4)c3)CC2)=C(c2ccc(Cl)cc2)C1 [Venetoclax] + C=CCn1c(=O)c2cnc(Nc3ccc(N4CCN(C)CC4)cc3)nc2n1-c1cccc(C(C)(C)O)n1 [AZD1775] (first compound max 1 µM, partner max 1 µM) ; retrieve measured combination Emax.
Completion: 0.951

Prompt: Param item = Cc1c2c(nn1C)CSCc1cc(n(C)n1)CSc1cc(c3ccccc3c1)OCCCc1c(C(=O)O)n(C)c3c-2c(Cl)ccc13 [AZD5991] + C[C@@H]1COCCN1C2=NC(=NC(=C2)C3(CC3)[S@](=N)(=O)C)C4=C5C=CNC5=NC=C4 [AZD6738] (first compound max 1 µM, 7x7, partner max 10 µM) ; retrieve measured combination Emax.
Completion: 0.973

Prompt: Param item = COc1nnc2ccc(N3CCC(c4ccc(OCCN5CCN(C)C(=O)[C@H]5C)cc4)CC3)nn12 [AZD5153] + Cc1c2c(nn1C)CSCc1cc(n(C)n1)CSc1cc(c3ccccc3c1)OCCCc1c(C(=O)O)n(C)c3c-2c(Cl)ccc13 [AZD5991] (first compound max 1 µM, 7x7, partner max 1 µM) ; retrieve measured combination Emax.
Completion: 0.857

Prompt: Param item = C[C@@H](c1ccc2nccn2c1)n1nnc2ncc(-c3cnn(C)c3)nc21 [Savolitinib] + CC1(C)CCC(CN2CCN(c3ccc(C(=O)NS(=O)(=O)c4ccc(NCC5CCOCC5)c([N+](=O)[O-])c4)c(Oc4cnc5[nH]ccc5c4)c3)CC2)=C(c2ccc(Cl)cc2)C1 [Venetoclax] (first compound max 1 µM, 7x7, partner max 1 µM) ; retrieve measured combination Emax.
Completion: 0.0738

Prompt: Param item = C=CCn1c(=O)c2cnc(Nc3ccc(N4CCN(C)CC4)cc3)nc2n1-c1cccc(C(C)(C)O)n1 [AZD1775] + C1CN(CCC1(C(=O)N[C@@H](CCO)C2=CC=C(C=C2)Cl)N)C3=NC=NC4=C3C=CN4 [Capivasertib] (first compound max 3 µM, partner max 3 µM) ; retrieve measured combination Emax.
Completion: 0.964

Prompt: Param item = COc1nnc2ccc(N3CCC(c4ccc(OCCN5CCN(C)C(=O)[C@H]5C)cc4)CC3)nn12 [AZD5153] + C=CCn1c(=O)c2cnc(Nc3ccc(N4CCN(C)CC4)cc3)nc2n1-c1cccc(C(C)(C)O)n1 [AZD1775] (first compound max 1 µM, partner max 1 µM) ; retrieve measured combination Emax.
Completion: 0.952

Prompt: Param item = C[C@@H]1COCCN1c1cc(C2([S@](C)(=N)=O)CC2)nc(-c2ccnc3[nH]ccc23)n1 [AZD6738] + O=C(c1cc(Cc2n[nH]c(=O)c3ccccc23)ccc1F)N1CCN(C(=O)C2CC2)CC1 [Olaparib] (first compound max 10 µM, 7x7, partner max 10 µM) ; retrieve measured combination Emax.
Completion: 0.982

Prompt: Param item = Cc1nc(Nc2ncc(C(=O)Nc3c(C)cccc3Cl)s2)cc(N2CCN(CCO)CC2)n1 [Dasatinib] + CC(=O)Nc1cccc(-n2c(=O)n(C3CC3)c(=O)c3c(Nc4ccc(I)cc4F)n(C)c(=O)c(C)c32)c1 [Trametinib] (first compound max 2 µM, 7x7, partner max 1 µM) ; retrieve measured combination Emax.
Completion: 0.556

Prompt: Param item = Cc1c2c(nn1C)CSCc1cc(n(C)n1)CSc1cc(c3ccccc3c1)OCCCc1c(C(=O)O)n(C)c3c-2c(Cl)ccc13 [AZD5991] + C=CCn1c(=O)c2cnc(Nc3ccc(N4CCN(C)CC4)cc3)nc2n1-c1cccc(C(C)(C)O)n1 [AZD1775] (first compound max 1 µM, partner max 1 µM) ; retrieve measured combination Emax.
Completion: 0.978

Prompt: Param item = NC1(C(=O)N[C@@H](CCO)c2ccc(Cl)cc2)CCN(c2ncnc3[nH]ccc23)CC1 [Capivasertib] + CC(=O)c1c(C)c2cnc(Nc3ccc(N4CCNCC4)cn3)nc2n(C2CCCC2)c1=O [Palbociclib] (first compound max 10 µM, 7x7, partner max 10 µM) ; retrieve measured combination Emax.
Completion: 0.75

Prompt: Param item = COc1cccc(OCCCN)c1-c1cc(Nc2cnc(C#N)cn2)n[nH]1 [Prexasertib] + C=CCn1c(=O)c2cnc(Nc3ccc(N4CCN(C)CC4)cc3)nc2n1-c1cccc(C(C)(C)O)n1 [AZD1775] (first compound max 1 µM, partner max 1 µM) ; retrieve measured combination Emax.
Completion: 1

Prompt: Param item = CS(=O)(=O)CCNCc1ccc(-c2ccc3ncnc(Nc4ccc(OCc5cccc(F)c5)c(Cl)c4)c3c2)o1 [Lapatinib] + C[C@@H](Oc1cc(-c2cnn(C3CCNCC3)c2)cnc1N)c1c(Cl)ccc(F)c1Cl [Crizotinib] (first compound max 10 µM, 7x7, partner max 10 µM) ; retrieve measured combination Emax.
Completion: 0.884

Prompt: Param item = C=CCn1c(=O)c2cnc(Nc3ccc(N4CCN(C)CC4)cc3)nc2n1-c1cccc(C(C)(C)O)n1 [AZD1775] + C[C@@H]1COCCN1C2=NC(=NC(=C2)C3(CC3)[S@](=N)(=O)C)C4=C5C=CNC5=NC=C4 [AZD6738] (first compound max 1 µM, partner max 10 µM) ; retrieve measured combination Emax.
Completion: 0.989

* * *

- Test system: CHL-1 (Melanoma)
- assay-text: combination Emax (second highest fraction inhibited in the dose matrix, 72 h); higher = more inhibition; extreme values may be limits of the assay
measured-property: combination Emax
Could you keep your reply to the number by itself?

Prompt: Param item = CC1(C)CCC(CN2CCN(c3ccc(C(=O)NS(=O)(=O)c4ccc(NCC5CCOCC5)c([N+](=O)[O-])c4)c(Oc4cnc5[nH]ccc5c4)c3)CC2)=C(c2ccc(Cl)cc2)C1 [Venetoclax] + Cc1cc2ncnn2cc1Nc1ncc2c(n1)n(C1CCOCC1)c(=O)n2C [AZD7648] (first compound max 1 µM, 7x7, partner max 10 µM) ; retrieve measured combination Emax.
Completion: 0.215

Prompt: Param item = Cc1c2c(nn1C)CSCc1cc(n(C)n1)CSc1cc(c3ccccc3c1)OCCCc1c(C(=O)O)n(C)c3c-2c(Cl)ccc13 [AZD5991] + C=CCn1c(=O)c2cnc(Nc3ccc(N4CCN(C)CC4)cc3)nc2n1-c1cccc(C(C)(C)O)n1 [AZD1775] (first compound max 1 µM, partner max 1 µM) ; retrieve measured combination Emax.
Completion: 0.745

* * *

- Test system: NCI-H1563 (Lung Adenocarcinoma)
- assay-text: combination Emax (second highest fraction inhibited in the dose matrix, 72 h); higher = more inhibition; extreme values may be limits of the assay
Answer each item with its documented combination Emax.
Could you keep your reply to the number by itself?

Prompt: Param item = NC1(C(=O)N[C@@H](CCO)c2ccc(Cl)cc2)CCN(c2ncnc3[nH]ccc23)CC1 [Capivasertib] + C[C@@H]1COCCN1C2=NC(=NC(=C2)C3(CC3)[S@](=N)(=O)C)C4=C5C=CNC5=NC=C4 [AZD6738] (first compound max 10 µM, 7x7, partner max 10 µM) ; retrieve measured combination Emax.
Completion: 0.501

Prompt: Param item = CN(CCO)CC[C@H](CSc1ccccc1)Nc1ccc(S(=O)(=O)NC(=O)c2ccc(N3CCC([C@@H](O)c4ccccc4-c4ccc(Cl)cc4)CC3)cc2)cc1S(=O)(=O)C(F)(F)F [AZD4320] + CCN(CCO)CCCOc1ccc2c(Nc3cc(CC(=O)Nc4cccc(F)c4)[nH]n3)ncnc2c1 [AZD2811] (first compound max 1 µM, 7x7, partner max 1 µM) ; retrieve measured combination Emax.
Completion: 0.188

Prompt: Param item = NC1(C(=O)N[C@@H](CCO)c2ccc(Cl)cc2)CCN(c2ncnc3[nH]ccc23)CC1 [Capivasertib] + CCN(CCO)CCCOc1ccc2c(Nc3cc(CC(=O)Nc4cccc(F)c4)[nH]n3)ncnc2c1 [AZD2811] (first compound max 10 µM, 7x7, partner max 1 µM) ; retrieve measured combination Emax.
Completion: 0.441
